Readings of Kd for the listed molecules
Target: Vascular endothelial growth factor A, long form (Homo sapiens)
Sequence (P15692 whole entry): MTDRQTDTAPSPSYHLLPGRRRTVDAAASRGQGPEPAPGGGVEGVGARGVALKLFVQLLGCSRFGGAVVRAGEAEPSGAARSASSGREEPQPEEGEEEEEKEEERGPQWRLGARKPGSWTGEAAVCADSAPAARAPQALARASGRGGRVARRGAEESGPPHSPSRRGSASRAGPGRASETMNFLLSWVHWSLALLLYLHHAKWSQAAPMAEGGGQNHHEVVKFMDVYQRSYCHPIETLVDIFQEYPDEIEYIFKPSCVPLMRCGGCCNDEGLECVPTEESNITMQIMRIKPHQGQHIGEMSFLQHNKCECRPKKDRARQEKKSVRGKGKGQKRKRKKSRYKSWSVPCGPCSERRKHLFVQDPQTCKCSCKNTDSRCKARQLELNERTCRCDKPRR
Could you write the number and then its unit?

Some solved entries appear below for comparison.
1) CO[C@H]1O[C@H](CNC(=O)CN(C(C)=O)C2CCCCCC2)[C@@H](OS(=O)(=O)O)[C@H](OS(=O)(=O)O)[C@@H]1OS(=O)(=O)O : 3000 µM
2) CO[C@H]1O[C@H](CNC(=O)CN(C(C)=O)c2ccccc2)[C@@H](OS(=O)(=O)O)[C@H](OS(=O)(=O)O)[C@@H]1OS(=O)(=O)O : 76 µM
3) CCN(CC(=O)NC[C@H]1O[C@H](OC)[C@@H](OS(=O)(=O)O)[C@@H](OS(=O)(=O)O)[C@@H]1OS(=O)(=O)O)C(=O)c1ccccc1 : 1100 µM

QUERY: Form entry - test system: Vascular endothelial growth factor A, long form (Homo sapiens); read-out: Kd; molecule: CCN(CC(=O)NC[C@H]1O[C@H](OC)[C@@H](OS(=O)(=O)O)[C@@H](OS(=O)(=O)O)[C@@H]1OS(=O)(=O)O)C(=O)CCCCC(=O)O
RESULT: 104 µM

QUERY: And the next one, CCN(CC(=O)NC[C@H]1O[C@H](OC)[C@@H](OS(=O)(=O)O)[C@@H](OS(=O)(=O)O)[C@@H]1OS(=O)(=O)O)C(=O)CCCc1ccccc1 ?
RESULT: 81 µM

QUERY: Queued: CO[C@H]1O[C@H](CNC(=O)CN(CCc2ccccc2)C(C)=O)[C@@H](OS(=O)(=O)O)[C@H](OS(=O)(=O)O)[C@@H]1OS(=O)(=O)O
RESULT: 109 µM

Value source: ChEMBL document CHEMBL2086261
